B1: tRNA (parent)
chain: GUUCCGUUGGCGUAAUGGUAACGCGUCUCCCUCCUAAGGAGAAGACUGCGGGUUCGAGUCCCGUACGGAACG

# Variants of: B1
# Measurement Notes: yeast fitness relative to wild type (ratio to wild type); higher = fitter; tRNA-Arg(CCU), competitive growth, 37 C, YPD
Variants at the floor of the assay were thinned out.
Property: yeast fitness

>>> print(df.to_string())
                  mutation_code  op  reported_measurement
 0      U2C C11G A37G G51C A57G   =                 0.632
 1                    C30A U47C   =                 0.775
 2                    C34U A70C   =                  0.73
 3          C11A C24U C27A C62G   ≤                   0.5
 4           U7G C34A C46G A65C   =                 0.746
 5                U2G A43G G56A   =                 0.589
 6                    G44C G67C   =                 0.823
 7      C5U U13A G38C U47G C62U   ≤                   0.5
 8               G10A A45U C61U   =                 0.536
 9                 C4U U8A C22U   ≤                   0.5
10                    G25C G67A   =                  1.01
11               C22U A65U A70U   =                 0.628
12          C11G U16G G38C G68A   ≤                   0.5
13               C29A G50C U64C   ≤                   0.5
14          C31G A36C G68A A70C   ≤                   0.5
15                    U28C A42C   =                 0.858
16               A15C C31U G63A   ≤                   0.5
17                          G6C   =                     1
18  C4A G9A U16A C30U A40G C46U   ≤                   0.5
19      C5U A15U U16A C29U C55U   ≤                   0.5
20      U2C U16A C49U A65C A69C   ≤                   0.5
21               C27G G38C U64A   ≤                   0.5
